Tested on: HS 578T breast
assay.overview: NCI-60 one-dose screen, 48 h (100 = growth as untreated, 0 = no growth, -100 = all killed)
condition.context: 10 µM unless noted
Method: Growth inhibition of the HS 578T human tumor cell line is measured as a screen for anti-cancer activity. Cells are grown in 96 well plates and exposed to the test compound for 48 hours. Compounds are tested at a single concentration, which is 10^-5 M for most compounds. The reported endpoint is percent growth (GI% or GIPRCNT), where numbers from 0 - 100% represent growth inhibition, and numbers from -100% - 0 represent cell death. For example, a value of 40 represents 60% growth inhibition. […]
About 83,000 compounds went through this panel and 20% of them were active in at least one assay; those are over-represented in the sample as a whole.
This section presents compounds with their documented growth values.
Please give a number only; it is taken to be in %.

In the examples that follow, each entry is paired with its recorded growth.
O=[N+]([O-])c1ccccc1/C=N\NC(=S)N/N=C/c1ccccc1[N+](=O)[O-]; 62.9
COc1ccc(C(=O)COc2ccc(/C=C3\COc4ccc(OC)cc4C3=O)cc2)cc1; 81.7
O=C1OCC2=C1C(c1ccncc1)c1cc3c(cc1N2CCO)OCO3 (stereo not given); 87
COc1cccc(-c2nc3sccn3c2-c2ccnc(NCCNS(=O)(=O)c3ccccc3)c2)c1; 35.7

Then there is this compound:
growth for O=C(O)c1ccc(NC(=O)c2ccc(-c3cccc([N+](=O)[O-])c3)o2)cc1 ?
90.7

###

Tested on: OVCAR-5 ovarian
assay.overview: NCI-60 one-dose screen, 48 h
condition.context: 10 µM unless noted
Compounds without any hit were thinned out: in the full panel of roughly 83,000, 20% have a hit. Calls of active or inactive are those of the source. How the source made its calls: active means growth percent below 10; inactive means the rest.
Outcome field: choose from t = active, f = inactive

// known answers, use as guide
CC(=O)c1nc2ccccc2n1CC(=O)c1cccc(Cl)c1; f
Cc1nc(Nc2ccc(F)c(Cl)c2)sc1C(=O)O; f
O=C(Nc1cccc2[nH]c(C(F)(F)F)nc12)c1ccc(-n2cnnn2)cc1; f
CC(=O)NCC1c2c(n(C)c3c(Cl)c(Cl)ccc23)C(=O)NC1(C)C (stereo not given); f
OCC(O)c1nc2ccc3[nH]ncc3c2c2c1CCCC2 (stereo not given); f
COc1cc(-c2nn(-c3ccc(Br)cc3)cc2C(=O)O)ccc1O; f
CCCc1cc(=O)n2c(C(=O)Nc3ccc(F)cc3)c(C(=O)Nc3ccc(F)cc3)sc2n1; f
COc1cc(C(=O)Oc2ccccc2OC(=O)c2cc(OC)c(OC)c(OC)c2)cc(OC)c1OC; f
COc1ccc(-n2nc(C)c3c(Nc4ccc(NC(=O)Nc5c(Cl)cccc5Cl)cc4)ncnc32)cc1; f
O=C(COc1cccc(/C=C2\CSc3ccccc3C2=O)c1)Nc1nccs1; f

Each compound tested received a call. Report the one for COc1ccc(-c2cc(-c3ccc(Nc4ccnc5cc(Cl)ccc45)cc3)nc(N3CCOCC3)n2)cc1 .
f

Same read-out for C#CCOc1ccc2ncnc(Nc3cccc(CNC(=O)C=C)c3)c2c1 ?
f

O=C1OCC2=C1C(c1ccncc1)c1cc3c(cc1N2CCO)OCO3 (stereo not given) ?
f

Similarly, CNC(=O)c1cc(Oc2ccc(NC(=O)Nc3ccc(Cl)c(SC)c3)c(F)c2)ccn1 ?
f

Another compound to check: COc1ccc(Nc2c3c4c(cccc4[nH]c2=O)C(=O)c2ccccc2-3)cc1
f

O=c1cc(CSc2nnc(SCc3cc(=O)oc4c3ccc3ccccc34)o2)c2ccc3ccccc3c2o1 ?
f

Now give it for COc1cc(-c2nn(-c3ccc(C)cc3)cc2C(=O)O)ccc1O too.
f

Now the same for CC(=O)O[C@H]1C(=O)[C@@]2(C)[C@H]([C@H](OC(=O)c3ccccc3)[C@]3(O)C[C@H](OC(=O)[C@H](OC(=O)CCC(=O)OC4CCC(S/N=C(N)/N=C(\N)N(C)C)CC4)[C@@H](NC(=O)c4ccccc4)c4ccccc4)C(C)=C1C3(C)C)[C@]1(OC(C)=O)CO[C@@H]1C[C@@H]2O (stereo not given in full)
f

Moving on to C(=C\c1nccc2c1[nH]c1ccccc12)/c1ccccc1
f

Now consider C=CC(=O)Nc1cccc(Nc2nc(SC)nc(-c3cccc([N+](=O)[O-])c3)c2C#N)c1 and answer again.
f

Ok, now CC(C)(C)N1CCC1CN (stereo not given)
f

Then this compound: COc1ccc(-c2cc(C(=O)N=Nc3c(O)[nH]c4ccc(Br)cc34)no2)cc1
f

Now give it for O=C(COc1ccc(/C=C2\COc3ccccc3C2=O)cc1)Nc1nccs1 too.
f

Then Cc1ccc(NC(=O)/C=C/c2ccccc2)c(C(N)=O)c1 ?
f

Next entry: Cc1cc2c3ccccc3ccc2[n+]2ccccc12
f
